Tested on: Staphylococcus epidermidis
Test: Antibacterial activity against Staphylococcus epidermidis ATCC 12228 after 24 to 48 hrs
Type: functional
observable: MIC

Query: I'm curious: which MIC was measured for `O=C(N[C@H](CO)[C@H](O)c1ccc([N+](=O)[O-])cc1)C(Cl)Cl` tested on Staphylococcus epidermidis?
Response: 4 µg/mL

Query: Record CCOC(=O)C1(C)C(C)NC(=S)N(C)C1c1ccc(O)cc1 (configuration not stated) : what is its MIC with Staphylococcus epidermidis?
Response: > 250 µg/mL

Query: Provide value of MIC for this record tested with Staphylococcus epidermidis: CCOC(=O)C1(C)C(C)NC(=O)N(C)C1c1ccc(N(C)C)cc1 (configuration not stated)
Response: > 250 µg/mL

###

System: Staphylococcus epidermidis
Assay: Antibacterial activity against Staphylococcus epidermidis ATCC 12228 after 24 to 48 hrs
Format: functional
Overview of reported MIC across a group of molecules:

// solved cases for MIC follow
CCOC(=O)C1(C)C(C)NC(=O)N(C)C1c1ccccc1 (centres undefined) = 68 µg/mL
CCOC(=O)C1(C)C(C)NC(=O)N(C)C1c1ccc(O)cc1 (centres undefined) = > 250 µg/mL
CCOC(=O)C1(C)C(C)NC(=O)N(C)C1c1ccc(OC)cc1 (centres undefined) = > 250 µg/mL
CCOC(=O)C1(C)C(C)NC(=S)N(C)C1c1ccc(Cl)cc1 (centres undefined) = > 250 µg/mL
CCOC(=O)C1(C)C(C)NC(=O)N(C)C1c1ccccc1[N+](=O)[O-] (centres undefined) = > 250 µg/mL
CCOC(=O)C1(C)C(C)NC(=S)N(C)C1c1ccc(OC)cc1 (centres undefined) = > 250 µg/mL

Query: Look up MIC: CCOC(=O)C1(C)C(C)NC(=O)N(C)C1c1ccc(Cl)cc1 (centres undefined)
Response: 68 µg/mL

Query: Looking for the measured MIC of `CN[C@@H]1[C@H](O[C@H]2[C@H](O[C@H]3[C@H](O)[C@@H](O)[C@H](N=C(N)N)[C@@H](O)[C@@H]3N=C(N)N)O[C@@H](C)[C@]2(O)C=O)O[C@@H](CO)[C@H](O)[C@H]1O` , can you help?
Response: > 250 µg/mL

Query: Which measured MIC value corresponds to CCOC(=O)C1(C)C(C)NC(=S)N(C)C1c1ccccc1 (centres undefined) ?
Response: > 250 µg/mL
